Method: collision cross section of modified peptide (TIMS, N2, iRT-aligned); higher = larger / more extended gas-phase ion
Run parameters: charge state: 3; modification: HexNAc (ST)
Catalogue of sequences with associated collision cross section
Please reply with the bare figure in Å² and do not write the unit itself.

Item sequence	Display unit	collision cross section
GQDSTIAASEQQVAAR [_GQDS(HexNAc (ST))TIAASEQQVAAR_]	Å²	532.78

**Q:** Item under review: TTSYPTPRPYPKPAPSSGK [_TTSYPTPRPYPKPAPS(HexNAc (ST))SGK_] . Reported collision cross section?
**A:** 526.67

**Q:** So what's the measured collision cross section for this one? LSEHATAPTR [_LSEHATAPT(HexNAc (ST))R_]
**A:** 450.64

**Q:** Need collision cross section of NLVTGDHIPTPQDLPQR [_NLVT(HexNAc (ST))GDHIPTPQDLPQR_] , thanks.
**A:** 500.97

====

Entries and their collision cross section values follow.
Method: collision cross section of modified peptide (TIMS, N2, iRT-aligned); higher = larger / more extended gas-phase ion
Run parameters: charge state: 2; modification: Acetyl (K)
Report the figure in Å² without appending any unit label.

Example entries begin here.
Item sequence	Property name	Display unit	Observed result
ASDTSSETVFGKR [_ASDTSSETVFGK(Acetyl (K))R_]	collision cross section	Å²	397.17
DFDTALKHYDK [_DFDTALK(Acetyl (K))HYDK_]	collision cross section	Å²	401.2
LLEQKTQESQK [_LLEQK(Acetyl (K))TQESQK_]	collision cross section	Å²	392.69
DTPTSAGPNSFNKGK [_DTPTSAGPNSFNK(Acetyl (K))GK_]	collision cross section	Å²	406.79

Let us examine a further case.
**Q:** State the recorded collision cross section for this entry: FDDTNPEKEEAK [_FDDTNPEK(Acetyl (K))EEAK_]
**A:** 394.25

====

Method: collision cross section of modified peptide (TIMS, N2, iRT-aligned); higher = larger / more extended gas-phase ion
Run parameters: charge state: 2; modification: Glutarylation
± gives the standard deviation.
Property name: collision cross section
# number then unit; no other words

Worked examples follow.
Item sequence	Observed result
SEASSEFAKK [_SEASSEFAK(Gluratylation)K_]	358.01 ± 0.65 Å²
DKALPLEAEVAPVK [_DK(Gluratylation)ALPLEAEVAPVK_]	424.54 ± 0.97 Å²
ANLEKAQAELVGTADEATR [_ANLEK(Gluratylation)AQAELVGTADEATR_]	478.84 ± 1.4 Å²
DAIHFYNKSLAEHR [_DAIHFYNK(Gluratylation)SLAEHR_]	458.31 Å²
DVNAAIAAIKTK [_DVNAAIAAIK(Gluratylation)TK_]	410.15 ± 0.99 Å²

**Q:** What does the data say about its collision cross section? Entry: GTVPDDAVEALADSLGKK [_GTVPDDAVEALADSLGK(Gluratylation)K_]
**A:** 452.53 ± 1.2 Å²

**Q:** Looking for the measured collision cross section of VGEFSGANKEK [_VGEFSGANK(Gluratylation)EK_] , can you help?
**A:** 364.67 ± 0.089 Å²

**Q:** What value of collision cross section has been recorded for this entry: ALLQAKASGK [_ALLQAK(Gluratylation)ASGK_]
**A:** 353.63 ± 0.71 Å²

**Q:** # collision cross section lookup, item GGPGSTLSFVGKR [_GGPGSTLSFVGK(Gluratylation)R_]
**A:** 392.32 ± 0.52 Å²

**Q:** Tell me the measured collision cross section of IVFSGNLFQHQEDSKK [_IVFSGNLFQHQEDSK(Gluratylation)K_] , please.
**A:** 499.16 ± 1.4 Å²

====

Method: collision cross section of modified peptide (TIMS, N2, iRT-aligned); higher = larger / more extended gas-phase ion
Run parameters: charge state: 2; modification: Acetyl (K)
Property name: collision cross section (Å²)
Please respond with the number in Å² and leave the unit unwritten.

Item sequence	Display unit	collision cross section
LLFSNTAAQKLR [_LLFSNTAAQK(Acetyl (K))LR_]	Å²	400.1
SLFFGGKGAPLQR [_SLFFGGK(Acetyl (K))GAPLQR_]	Å²	401.47
LQDVSGQLSSSKK [_LQDVSGQLSSSK(Acetyl (K))K_]	Å²	396.87
ALASIDSKLNQAK [_ALASIDSK(Acetyl (K))LNQAK_]	Å²	399.37

Now turn to the next sequence.
**Q:** Please report the recorded collision cross section for VFSIISSEKELK [_VFSIISSEK(Acetyl (K))ELK_] .
**A:** 405.7

====

Method: collision cross section of modified peptide (TIMS, N2, iRT-aligned); higher = larger / more extended gas-phase ion
Run parameters: charge state: 3; modification: HexNAc (ST)
± gives the standard deviation.
Property name: collision cross section
Please format your answer as a value with the unit trailing.

// known answers, use as guide
Item sequence	Observed result
IQTVPASHLQQGTASGSSK [_IQTVPASHLQQGTAS(HexNAc (ST))GSSK_]	510.18 ± 0.18 Å²
IPAASAAAMNLASAR [_IPAAS(HexNAc (ST))AAAMNLASAR_]	504.78 ± 1.3 Å²
TSAVSSQANSQPPVQVSVK [_T(HexNAc (ST))SAVSSQANSQPPVQVSVK_]	513.92 Å²
KSQAGASELGPFSDPR [_KSQAGASELGPFS(HexNAc (ST))DPR_]	503.83 ± 1.1 Å²
TPLTHALPGLSEQEGQK [_T(HexNAc (ST))PLTHALPGLSEQEGQK_]	513.42 ± 0.96 Å²

Turning to the following sequence.
**Q:** // query collision cross section value for entry LSTPPPLAEEEGLASR [_LS(HexNAc (ST))TPPPLAEEEGLASR_]
**A:** 503.24 Å²

====

Method: collision cross section of modified peptide (TIMS, N2, iRT-aligned); higher = larger / more extended gas-phase ion
Run parameters: charge state: 2; modification: Formyl
Property name: collision cross section (Å²)
Kindly provide the numeric value in Å² only, without the unit symbol.

Use the examples below as a reference point.
Item sequence	Property name	Display unit	Observed result
ASEALLKQLK [_ASEALLK(Formyl)QLK_]	collision cross section	Å²	369.4
LEEVTGKLQVAR [_LEEVTGK(Formyl)LQVAR_]	collision cross section	Å²	388.92

**Q:** # get_value(readout='collision cross section', item= IPQEKCILQTDVK [_IPQEK(Formyl)CILQTDVK_] )
**A:** 427.41

====

Method: collision cross section of modified peptide (TIMS, N2, iRT-aligned); higher = larger / more extended gas-phase ion
Run parameters: charge state: 2; modification: Succinyl
collision cross section vs 400 Å²: at or above is YES, below is NO.

**Q:** Is it the case that LAEEENKAK [_LAEEENK(Succinyl)AK_] has collision cross section reaching or exceeding 400 Å²?
**A:** NO

**Q:** Could you tell me if the measured collision cross section of LDEKENLSAK [_LDEK(Succinyl)ENLSAK_] reaches 400 Å² or more?
**A:** NO

**Q:** Determine whether measured collision cross section meets or exceeds 400 Å² for DHLSDKESK [_DHLSDK(Succinyl)ESK_]
**A:** NO

**Q:** Assess whether reported collision cross section for DAIHFYNKSLAEHR [_DAIHFYNK(Succinyl)SLAEHR_] sits at 400 Å² or higher.
**A:** YES

====

Method: collision cross section of unmodified peptide (TIMS, N2, iRT-aligned); higher = larger / more extended gas-phase ion
Run parameters: charge state: 3
Property name: collision cross section (Å²)
Numbers only here, please. The scale is Å².

Item sequence	collision cross section (Å²)
VPGALAAAKAAK	442.33
GGGFGAHGRGR	420.87
LGVATVAKGVCGACK	487.58

Next up:
**Q:** Query: collision cross section; subject: `GGGYGGDRGGYGGDR`
**A:** 463.21

====

Method: collision cross section of modified peptide (TIMS, N2, iRT-aligned); higher = larger / more extended gas-phase ion
Run parameters: charge state: 3; modification: Propionyl
Use class 1 when the recorded collision cross section is no lower than 500 Å²; use class 0 when it is lower.

Would you please look over these solved cases?
Item sequence	Class name
SLEEEGAAHSGKR [_SLEEEGAAHSGK(Propionyl)R_]	class 0
TEVLSPNSKVESK [_TEVLSPNSK(Propionyl)VESK_]	class 0
SPSDSGYSYETIGKTTK [_SPSDSGYSYETIGK(Propionyl)TTK_]	class 1

**Q:** Reported collision cross section at or above 500 Å²? ASDTSSETVFGKR [_ASDTSSETVFGK(Propionyl)R_]
**A:** class 0

**Q:** Hi team, for VSPASSVDSNIPSSQGYKK [_VSPASSVDSNIPSSQGYK(Propionyl)K_] , is the recorded collision cross section at or above 500 Å²?
**A:** class 1

**Q:** Is the recorded value of collision cross section equal to or greater than 500 Å² for this sequence? LQDVSGQLSSSKK [_LQDVSGQLSSSK(Propionyl)K_]
**A:** class 0

**Q:** Decide: is the reported value of collision cross section for SITHSTVGSKGEK [_SITHSTVGSK(Propionyl)GEK_] equal to or greater than 500 Å²?
**A:** class 0

**Q:** Could you please find out whether SGNLTEDDKHNNAK [_SGNLTEDDK(Propionyl)HNNAK_] has collision cross section that meets 500 Å² or exceeds it?
**A:** class 0

**Q:** Would you say GEVGAGAGPGAQAGPSAKR [_GEVGAGAGPGAQAGPSAK(Propionyl)R_] shows collision cross section at minimum 500 Å²?
**A:** class 0

**Q:** // inclusive: collision cross section at least 500 Å²? input: PSVGSQSNQAGQGKR [_PSVGSQSNQAGQGK(Propionyl)R_]
**A:** class 0

**Q:** Has SPDEAYAIAKK [_SPDEAYAIAK(Propionyl)K_] a recorded collision cross section greater than or equal to 500 Å²?
**A:** class 0

**Q:** For this sequence, is measured collision cross section 500 Å² or higher? AGQKLIDVNHYAK [_AGQK(Propionyl)LIDVNHYAK_]
**A:** class 0
